- method_summary: Pharmacokinetics after single i.v. or oral dose in rats
- Format: in vivo, Sprague-Dawley rats
- experimental_parameters: male, Sprague-Dawley, rat, plasma, iv, 1 mg/kg; read-out: Vss
readout_type: Vd (L/kg)
Numbers only, in L/kg.

Look up Vd for this molecule: "Clc1ccc2c(c1)N=C(N1CCNCC1)c1ccccc1N2"
1.47

* * *

- method_summary: Pharmacokinetics after single i.v. or oral dose in rats
- Format: in vivo, Sprague-Dawley rats
- experimental_parameters: male, Sprague-Dawley, rat, plasma, po, 10 mg/kg, Plasma concentration after NDMC administration, 120 min, NDMC p.o. 10 mg/kg, mean ± SD
readout_type: concentration at 120 min (ng/mL)
One number for each entry, in ng/mL.

Query: concentration at 120 min; subject: "Clc1ccc2c(c1)N=C(N1CCNCC1)c1ccccc1N2"
227

* * *

- assayed_target: M5 muscarinic receptor (Homo sapiens, UniProt P08912)
- Sequence (P08912 whole entry): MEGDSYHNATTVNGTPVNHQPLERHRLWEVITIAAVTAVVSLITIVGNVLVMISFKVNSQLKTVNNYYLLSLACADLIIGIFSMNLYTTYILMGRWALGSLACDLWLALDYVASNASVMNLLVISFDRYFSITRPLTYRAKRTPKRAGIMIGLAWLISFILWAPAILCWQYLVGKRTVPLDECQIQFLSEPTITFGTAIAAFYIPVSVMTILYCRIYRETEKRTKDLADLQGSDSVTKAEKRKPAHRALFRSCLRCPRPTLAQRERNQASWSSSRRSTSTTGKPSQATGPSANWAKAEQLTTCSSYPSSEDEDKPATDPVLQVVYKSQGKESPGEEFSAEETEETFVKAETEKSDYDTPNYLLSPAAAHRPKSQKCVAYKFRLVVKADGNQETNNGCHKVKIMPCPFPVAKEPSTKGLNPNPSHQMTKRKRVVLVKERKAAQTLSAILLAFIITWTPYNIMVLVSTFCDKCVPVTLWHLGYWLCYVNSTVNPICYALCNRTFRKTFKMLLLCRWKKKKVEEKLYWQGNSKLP
- method_summary: R-SAT agonist assay
- Type: cell-based
- Parameters: expressed in transfected cells; host or cells: NIH/3T3
- experimental_parameters: R-SAT; relative to carbachol; No response/nr = no agonist activity up to 10 μM
readout_type: M5 Efficacy (%)
Give bare numbers, in %.

# annotated cases, reported M5 Efficacy shown
C[N+](C)(C)CCOC(N)=O [Carbachol] | 105
Clc1ccc2c(c1)N=C(N1CCNCC1)c1ccccc1N2 [NDMC] | 48

# ---- query compound ----
Can you look up M5 Efficacy on M5 muscarinic receptor (Homo sapiens, UniProt P08912) for CCCCCCOc1nsnc1C1=CCCN(C)C1 [Xanomeline] ?
86

* * *

- method_summary: Pharmacokinetics after i.v. or oral dose in dogs
- Format: in vivo, beagle dogs
- experimental_parameters: beagle, dog, plasma, iv, 1 mg/kg, Plasma concentration of compound measured after clozapine administration, 120 min, clozapine i.v. 1 mg/kg
readout_type: concentration at 120 min (ng/mL)
One number for each entry, in ng/mL.

Return reported concentration at 120 min; argument: "Clc1ccc2c(c1)N=C(N1CCNCC1)c1ccccc1N2"
4.31

* * *

- method_summary: Pharmacokinetics after i.v. or oral dose in dogs
- Type: in vivo, beagle dogs
- experimental_parameters: beagle, dog, plasma, po, 10 mg/kg, Plasma concentration after NDMC administration, 120 min, NDMC p.o. 10 mg/kg
readout_type: concentration at 120 min
In your response, put the unit directly after the numeric value.

# query: concentration at 120 min of entry "Clc1ccc2c(c1)N=C(N1CCNCC1)c1ccccc1N2"
155 ng/mL

* * *

- method_summary: Pharmacokinetics after single i.v. or oral dose in rats
- Format: in vivo, Sprague-Dawley rats
- experimental_parameters: male, Sprague-Dawley, rat, plasma, po, 10 mg/kg, Plasma concentration of compound measured after clozapine administration, 240 min, clozapine p.o. 10 mg/kg, mean ± SD
readout_type: concentration at 240 min (ng/mL)
Numbers only, in ng/mL.

Please look up its concentration at 240 min: "Clc1ccc2c(c1)N=C(N1CCNCC1)c1ccccc1N2"
7.1

* * *

- assayed_target: 5-HT1A receptor (Homo sapiens, UniProt P08908)
- Sequence (P08908 1-422): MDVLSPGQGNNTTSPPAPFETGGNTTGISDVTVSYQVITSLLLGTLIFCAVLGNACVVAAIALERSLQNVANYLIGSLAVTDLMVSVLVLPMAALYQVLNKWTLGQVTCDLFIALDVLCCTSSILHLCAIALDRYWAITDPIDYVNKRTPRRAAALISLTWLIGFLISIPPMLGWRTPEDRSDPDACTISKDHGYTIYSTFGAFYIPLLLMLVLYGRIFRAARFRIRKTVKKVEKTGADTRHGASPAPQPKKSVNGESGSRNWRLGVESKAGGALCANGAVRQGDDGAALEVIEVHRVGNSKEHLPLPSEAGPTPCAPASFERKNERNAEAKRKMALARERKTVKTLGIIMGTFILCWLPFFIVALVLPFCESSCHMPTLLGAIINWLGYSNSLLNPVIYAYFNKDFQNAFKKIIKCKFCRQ
pKi: −log10 of the molar value.
readout_type: pKi

Item under review: O=C1Cc2cc(CCN3CCN(c4nsc5ccccc45)CC3)c(Cl)cc2N1 [Ziprasidone, reference compound] . Reported pKi?
< 6.00

* * *

- method_summary: Pharmacokinetics after i.v. or oral dose in dogs
- Assay type: in vivo, beagle dogs
- experimental_parameters: beagle, dog, serum, po, 10 mg/kg
readout_type: Tmax (h)
One number for each entry, in h.

What value of Tmax has been recorded for this entry: "Clc1ccc2c(c1)N=C(N1CCNCC1)c1ccccc1N2"
3.3

* * *

- method_summary: Brain-to-plasma ratio in rats
- Format: in vivo
- experimental_parameters: male, Sprague-Dawley, rat, po, 10 mg/kg, brain-to-plasma ratio of NDMC, 60 minutes after oral clozapine
readout_type: Kp at 1 h
One number for each entry.

Quick one: Kp at 1 h for "Clc1ccc2c(c1)N=C(N1CCNCC1)c1ccccc1N2" ?
0.26

* * *

- assayed_target: M4 muscarinic receptor (Homo sapiens)
- Sequence (P08173 whole entry): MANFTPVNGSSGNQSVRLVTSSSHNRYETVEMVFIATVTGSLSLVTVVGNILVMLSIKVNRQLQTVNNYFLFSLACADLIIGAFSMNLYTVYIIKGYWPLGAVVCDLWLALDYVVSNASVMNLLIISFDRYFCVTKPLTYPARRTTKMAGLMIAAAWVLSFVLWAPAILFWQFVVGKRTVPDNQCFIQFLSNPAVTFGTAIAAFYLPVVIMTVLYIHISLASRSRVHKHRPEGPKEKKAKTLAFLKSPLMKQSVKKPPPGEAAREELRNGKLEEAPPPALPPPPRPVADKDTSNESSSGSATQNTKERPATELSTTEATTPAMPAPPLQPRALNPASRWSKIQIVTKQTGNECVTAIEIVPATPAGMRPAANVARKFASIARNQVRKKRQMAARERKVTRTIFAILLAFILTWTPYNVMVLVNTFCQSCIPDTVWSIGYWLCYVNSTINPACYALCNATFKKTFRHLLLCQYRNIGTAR
- method_summary: R-SAT agonist assay
- Assay type: cell-based
- Design: expressed in transfected cells; host or cells: NIH/3T3
- experimental_parameters: relative to carbachol, No response/nr = no agonist activity up to 10 μM
Kindly supply the reported M4 Efficacy values for the records listed here.
One number for each entry, in %.

Examples with answers:
C[N+](C)(C)CCOC(N)=O | 96
Clc1ccc2c(c1)N=C(N1CCNCC1)c1ccccc1N2 | 87

Okay, now this molecule:
Given the entry "CCCCCCOc1nsnc1C1=CCCN(C)C1" , what M4 Efficacy was observed with M4 muscarinic receptor (Homo sapiens)?
116

* * *

- assayed_target: UniProtKB P50406
- Sequence (P50406 whole entry): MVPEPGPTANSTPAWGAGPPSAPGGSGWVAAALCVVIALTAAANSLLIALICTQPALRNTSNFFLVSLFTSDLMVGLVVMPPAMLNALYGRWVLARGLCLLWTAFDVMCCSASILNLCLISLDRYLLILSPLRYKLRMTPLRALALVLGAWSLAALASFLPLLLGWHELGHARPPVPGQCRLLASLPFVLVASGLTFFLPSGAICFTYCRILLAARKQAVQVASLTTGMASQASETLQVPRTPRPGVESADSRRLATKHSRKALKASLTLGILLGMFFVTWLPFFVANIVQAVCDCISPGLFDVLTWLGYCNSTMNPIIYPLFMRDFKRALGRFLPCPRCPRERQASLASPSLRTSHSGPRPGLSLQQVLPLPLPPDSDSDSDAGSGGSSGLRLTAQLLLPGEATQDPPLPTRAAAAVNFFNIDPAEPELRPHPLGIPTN
- method_summary: R-SAT inverse agonist assay
readout_type: pEC50
One number for each entry, as −log10 of the molar value.

Request the reported pEC50 associated with "Clc1ccc2c(c1)N=C(N1CCNCC1)c1ccccc1N2"
6.90

* * *

- method_summary: Pharmacokinetics after single i.v. or oral dose in rats
- Format: in vivo, Sprague-Dawley rats
- experimental_parameters: male, Sprague-Dawley, rat, plasma, po, 10 mg/kg, Plasma concentration of compound measured after clozapine administration, 120 min, clozapine p.o. 10 mg/kg, mean ± SD
readout_type: concentration at 120 min (µg/mL)
One number for each entry, in µg/mL.

Returns the measured concentration at 120 min for the input compound. Input: "Clc1ccc2c(c1)N=C(N1CCNCC1)c1ccccc1N2"
0.0425

* * *

- method_summary: Pharmacokinetics after i.v. or oral dose in dogs
- Assay type: in vivo, beagle dogs
- experimental_parameters: beagle, dog, plasma, po, 10 mg/kg, Plasma concentration of compound measured after clozapine administration, 30 min, clozapine p.o. 10 mg/kg
readout_type: concentration at 30 min
// unit must come after the numeric part

// concentration at 30 min lookup, key: "Clc1ccc2c(c1)N=C(N1CCNCC1)c1ccccc1N2"
2.45 ng/mL

* * *

- method_summary: Pharmacokinetics after single i.v. or oral dose in rats
- Type: in vivo, Sprague-Dawley rats
- experimental_parameters: male, Sprague-Dawley, rat, plasma, iv, 1 mg/kg, after clozapine i.v. 1 mg/kg, read-out: Tmax of compound measured (converted)
readout_type: Tmax (h)
Give bare numbers, in h.

Any idea what its Tmax is? The compound is Clc1ccc2c(c1)N=C(N1CCNCC1)c1ccccc1N2 [NDMC]
1

* * *

- method_summary: Pharmacokinetics after single i.v. or oral dose in rats
- Type: in vivo, Sprague-Dawley rats
- experimental_parameters: male, Sprague-Dawley, rat, plasma, po, 10 mg/kg, Plasma concentration after NDMC administration, 180 min, NDMC p.o. 10 mg/kg, mean ± SD
readout_type: concentration at 180 min (ng/mL)
Numbers only, in ng/mL.

Can you share its concentration at 180 min? I mean this molecule: "Clc1ccc2c(c1)N=C(N1CCNCC1)c1ccccc1N2"
170

* * *

- method_summary: Pharmacokinetics after single i.v. or oral dose in rats
- Format: in vivo, Sprague-Dawley rats
- experimental_parameters: male, Sprague-Dawley, rat, plasma, po, 10 mg/kg, Plasma concentration after NDMC administration, 240 min, NDMC p.o. 10 mg/kg, mean ± SD
readout_type: concentration at 240 min (ng/mL)
Give bare numbers, in ng/mL.

What does the data say about its concentration at 240 min? Entry: Clc1ccc2c(c1)N=C(N1CCNCC1)c1ccccc1N2 [NDMC]
122

* * *

- method_summary: Pharmacokinetics after i.v. or oral dose in dogs
- Assay type: in vivo, beagle dogs
- experimental_parameters: beagle, dog, plasma, po, 10 mg/kg, Plasma concentration after NDMC administration, 180 min, NDMC p.o. 10 mg/kg
readout_type: concentration at 180 min (ng/mL)
Numbers only, in ng/mL.

Record request: concentration at 180 min value, item "Clc1ccc2c(c1)N=C(N1CCNCC1)c1ccccc1N2"
249

* * *

Would you kindly list M2 Efficacy for each of these compounds?
- assayed_target: UniProt:P08172
- Sequence (P08172 whole entry): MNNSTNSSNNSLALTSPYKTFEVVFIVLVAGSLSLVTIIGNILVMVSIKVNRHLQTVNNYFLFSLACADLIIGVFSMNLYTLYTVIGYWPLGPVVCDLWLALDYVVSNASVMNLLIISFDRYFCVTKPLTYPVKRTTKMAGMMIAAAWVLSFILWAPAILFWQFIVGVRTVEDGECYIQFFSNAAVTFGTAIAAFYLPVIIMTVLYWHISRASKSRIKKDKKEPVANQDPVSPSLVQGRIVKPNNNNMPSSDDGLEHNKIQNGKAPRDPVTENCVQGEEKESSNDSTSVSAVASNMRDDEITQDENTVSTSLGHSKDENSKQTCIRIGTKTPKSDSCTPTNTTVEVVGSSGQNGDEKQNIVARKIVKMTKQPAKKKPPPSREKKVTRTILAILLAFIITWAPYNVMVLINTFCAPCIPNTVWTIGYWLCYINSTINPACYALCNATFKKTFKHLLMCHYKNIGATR
- method_summary: R-SAT agonist assay
- experimental_parameters: R-SAT; relative to carbachol; No response/nr = no agonist activity up to 10 μM
Numbers only, in %.

CN1CCN(C2=Nc3cc(Cl)ccc3Nc3ccccc32)CC1 [Clozapine, reference compound] | 65

Okay, next one:
Using the record for Clc1ccc2c(c1)N=C(N1CCNCC1)c1ccccc1N2 [NDMC] , report its M2 Efficacy.
106
